parameter.measured: Ki (nM)
Use nM as the unit, but write only the number.

Give the observed Ki of "c1ccc(CCCNCCCOc2ccccc2)cc1" for D(3) dopamine receptor (Homo sapiens, UniProt P35462).
17

Give the observed Ki of "COc1ccc(OCCNCCCOc2ccccc2)cc1" for D(3) dopamine receptor (Homo sapiens, UniProt P35462).
369

Give the observed Ki of "Cc1ccc(OCCNCCCOc2ccccc2)cc1Cl" for D(3) dopamine receptor (Homo sapiens, UniProt P35462).
3.9

Give the observed Ki of "c1ccc(OCCCNCCOc2ccccc2)cc1" for D(3) dopamine receptor (Homo sapiens, UniProt P35462).
136

Give the observed Ki of "Fc1ccc(OCCCNCCOc2ccc(Cl)cc2)cc1" for D(3) dopamine receptor (Homo sapiens, UniProt P35462).
98

Give the observed Ki of "Cc1ccc(OCCNCCCOc2ccc(Br)cc2)cc1" for D(3) dopamine receptor (Homo sapiens, UniProt P35462).
1700
